biological target: Cytochrome P450 3A4 (Homo sapiens, UniProt P08684); assay: Inhibition of human liver microsome CYP3A4 at 1 uM expressed in baculosomes using fluorogenic-DBOMF as substrate preincubated for 10 mins followed by substrate addition and measured after 60 mins by fluorescence based assay; assay type: ADME, microsomes; details: microsomes, 1 h, 1 µM
Sequence (P08684 whole entry): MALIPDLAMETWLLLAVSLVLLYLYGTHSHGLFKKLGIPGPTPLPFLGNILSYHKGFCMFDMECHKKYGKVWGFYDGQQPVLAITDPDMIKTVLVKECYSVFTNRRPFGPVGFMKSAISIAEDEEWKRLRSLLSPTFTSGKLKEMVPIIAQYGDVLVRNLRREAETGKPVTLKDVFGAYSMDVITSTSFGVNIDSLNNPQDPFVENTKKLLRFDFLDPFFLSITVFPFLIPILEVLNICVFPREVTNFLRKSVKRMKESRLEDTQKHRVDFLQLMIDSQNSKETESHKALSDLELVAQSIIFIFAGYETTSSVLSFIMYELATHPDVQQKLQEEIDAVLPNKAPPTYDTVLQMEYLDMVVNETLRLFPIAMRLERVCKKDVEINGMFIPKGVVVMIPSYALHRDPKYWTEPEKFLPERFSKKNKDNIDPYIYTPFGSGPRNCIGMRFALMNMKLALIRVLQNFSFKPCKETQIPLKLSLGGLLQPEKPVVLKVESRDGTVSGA
Measured Property: inhibition (INH)

{"Compound": "CCC(C)n1ncn(-c2ccc(N3CCN(c4ccc(OC[C@@H]5COC(c6ccc(Cl)cc6Cl)O5)cc4)CC3)cc2)c1=O (mixture of isomers)", "Result": "Not Active"}
{"Compound": "CCC(C)n1ncn(-c2ccc(N3CCN(c4ccc(OC[C@@H]5CO[C@@](CN(C)C)(c6ccc(Cl)cc6Cl)O5)cc4)CC3)cc2)c1=O (stereo partly drawn)", "Result": "Not Active"}
{"Compound": "CCC(C)n1ncn(-c2ccc(N3CCN(c4ccc(OC[C@@H]5CO[C@@](CC)(c6ccc(Cl)cc6Cl)O5)cc4)CC3)cc2)c1=O (stereo partly drawn)", "Result": "Not Active"}
{"Compound": "CCC(C)n1ncn(-c2ccc(N3CCN(c4ccc(OC[C@@H]5CO[C@@](Cc6ccccc6)(c6ccc(Cl)cc6Cl)O5)cc4)CC3)cc2)c1=O (stereo partly drawn)", "Result": "Not Active"}
{"Compound": "CCC(C)n1ncn(-c2ccc(N3CCN(c4ccc(OC[C@@H]5CO[C@@](Cn6cc(C(F)(F)F)nc6C)(c6ccc(Cl)cc6Cl)O5)cc4)CC3)cc2)c1=O (stereo partly drawn)", "Result": "Not Active"}
{"Compound": "CCC(C)n1ncn(-c2ccc(N3CCN(c4ccc(OC[C@@H]5CO[C@@](Cn6cccn6)(c6ccc(Cl)cc6Cl)O5)cc4)CC3)cc2)c1=O (stereo partly drawn)", "Result": "Not Active"}
{"Compound": "CCC(C)n1ncn(-c2ccc(N3CCN(c4ccc(OC[C@@H]5CO[C@@](CC6CCCC6)(c6ccc(Cl)cc6Cl)O5)cc4)CC3)cc2)c1=O (stereo partly drawn)", "Result": "Not Active"}

Alright, here's another compound for you.
State inhibition (INH) (Cytochrome P450 3A4 (Homo sapiens, UniProt P08684)) of CCC(C)n1ncn(-c2ccc(N3CCN(c4ccc(OC[C@@H]5CO[C@@](Cn6cnc(C(F)(F)F)n6)(c6ccc(Cl)cc6Cl)O5)cc4)CC3)cc2)c1=O (stereo partly drawn) .
Not Active

* * *

target: UniProt P08684; assay: Inhibition of human liver microsome CYP3A4 at 1 uM expressed in baculosomes using fluorogenic-DBOMF as substrate preincubated for 10 mins followed by substrate addition and measured after 60 mins by fluorescence based assay; assay type: ADME, microsomes; conditions: recombinant CYP3A4 expressed in baculosomes, probe DBOMF (fluorogenic)
Entries are sorted into classes by inhibition at 1 h, 1 µM as follows: low range = under 30%, mid range = from 30% up to 80%, high range = 80% and over

Use the examples below as a reference point.
{"Compound": "CCC(C)n1ncn(-c2ccc(N3CCN(c4ccc(OC[C@@H]5CO[C@@](Cn6ccnc6)(c6ccc(Cl)cc6Cl)O5)cc4)CC3)cc2)c1=O (stereo not given in full)", "Assigned Label": "high range"}
{"Compound": "CCC(C)n1ncn(-c2ccc(N3CCN(c4ccc(OC[C@@H]5CO[C@@](Cn6nc(C)nc6C)(c6ccc(Cl)cc6Cl)O5)cc4)CC3)cc2)c1=O (stereo not given in full)", "Assigned Label": "low range"}
{"Compound": "CCC(C)n1ncn(-c2ccc(N3CCN(c4ccc(OC[C@@H]5CO[C@@](Cn6cc(C)nc6C)(c6ccc(Cl)cc6Cl)O5)cc4)CC3)cc2)c1=O (stereo not given in full)", "Assigned Label": "mid range"}
{"Compound": "CCc1nccn1C[C@@]1(c2ccc(Cl)cc2Cl)OC[C@@H](COc2ccc(N3CCN(c4ccc(-n5cnn(C(C)CC)c5=O)cc4)CC3)cc2)O1 (stereo not given in full)", "Assigned Label": "low range"}
{"Compound": "CCC(C)n1ncn(-c2ccc(N3CCN(c4ccc(OC[C@@H]5CO[C@@](Cn6ccnc6C(C)C)(c6ccc(Cl)cc6Cl)O5)cc4)CC3)cc2)c1=O (stereo not given in full)", "Assigned Label": "low range"}

Categorize the following entry: CCC(C)n1ncn(-c2ccc(N3CCN(c4ccc(OC[C@@H]5CO[C@@](CBr)(c6ccc(Cl)cc6Cl)O5)cc4)CC3)cc2)c1=O (stereo not given in full)
low range

Categorize the following entry: CCC(C)n1ncn(-c2ccc(N3CCN(c4ccc(OC[C@@H]5CO[C@@](Cn6ccnc6C)(c6ccc(Cl)cc6Cl)O5)cc4)CC3)cc2)c1=O (stereo not given in full)
mid range

Categorize the following entry: CCC(C)n1ncn(-c2ccc(N3CCN(c4ccc(OC[C@@H]5CO[C@@](CN6CCNCC6)(c6ccc(Cl)cc6Cl)O5)cc4)CC3)cc2)c1=O (stereo not given in full)
high range

Categorize the following entry: CCC(C)n1ncn(-c2ccc(N3CCN(c4ccc(OCC5COC(Cn6cncn6)(c6ccc(Cl)cc6Cl)O5)cc4)CC3)cc2)c1=O (stereo not given)
high range

Categorize the following entry: CCC(C)n1ncn(-c2ccc(N3CCN(c4ccc(OC[C@@H]5CO[C@@](Cn6cnc(C)c6)(c6ccc(Cl)cc6Cl)O5)cc4)CC3)cc2)c1=O (stereo not given in full)
high range

* * *

target: UniProt:P08684; assay: Inhibition of human liver microsome CYP3A4 expressed in baculosomes using fluorogenic-DBOMF as substrate preincubated for 10 mins followed by substrate addition and measured after 60 mins by fluorescence based assay
Measured Property: EC50

State EC50 (UniProt:P08684) of CCC(C)n1ncn(-c2ccc(N3CCN(c4ccc(OC[C@@H]5CO[C@@](Cn6cnnn6)(c6ccc(Cl)cc6Cl)O5)cc4)CC3)cc2)c1=O (stereo partly specified) .
> 20 µM

* * *

Kindly supply the reported inhibition at 1 h, 1 µM values for the records listed here.
target: UniProtKB P08684; assay: Inhibition of human liver microsome CYP3A4 at 1 uM expressed in baculosomes using fluorogenic-DBOMF as substrate preincubated for 10 mins followed by substrate addition and measured after 60 mins by fluorescence based assay; format: ADME, microsomes; settings: recombinant CYP3A4 expressed in baculosomes, probe DBOMF (fluorogenic)

{"Compound": "CCC(C)n1ncn(-c2ccc(N3CCN(c4ccc(OC[C@@H]5CO[C@@](Cn6c(C)cnc6C)(c6ccc(Cl)cc6Cl)O5)cc4)CC3)cc2)c1=O (stereo partly specified)", "inhibition at 1 h, 1 µM": "23%"}
{"Compound": "CCC(C)n1ncn(-c2ccc(N3CCN(c4ccc(OC[C@@H]5CO[C@@](CN6CCN(C)CC6)(c6ccc(Cl)cc6Cl)O5)cc4)CC3)cc2)c1=O (stereo partly specified)", "inhibition at 1 h, 1 µM": "18%"}
{"Compound": "CCC(C)n1ncn(-c2ccc(N3CCN(c4ccc(OC[C@@H]5CO[C@@](Cn6nnnc6C)(c6ccc(Cl)cc6Cl)O5)cc4)CC3)cc2)c1=O (stereo partly specified)", "inhibition at 1 h, 1 µM": "7%"}
{"Compound": "CCC(C)n1ncn(-c2ccc(N3CCN(c4ccc(OC[C@@H]5CO[C@@](Cn6ccnc6-c6ccccc6)(c6ccc(Cl)cc6Cl)O5)cc4)CC3)cc2)c1=O (stereo partly specified)", "inhibition at 1 h, 1 µM": "23%"}
{"Compound": "CCC(C)n1ncn(-c2ccc(N3CCN(c4ccc(OC[C@@H]5CO[C@@](CN6CCOCC6)(c6ccc(Cl)cc6Cl)O5)cc4)CC3)cc2)c1=O (stereo partly specified)", "inhibition at 1 h, 1 µM": "16%"}

Alright, here's another compound for you.
Specify measured inhibition at 1 h, 1 µM for CCC(C)n1ncn(-c2ccc(N3CCN(c4ccc(OC[C@@H]5CO[C@@](Cn6cnnn6)(c6ccc(Cl)cc6Cl)O5)cc4)CC3)cc2)c1=O (stereo partly specified) .
2%

* * *

molecular target: UniProtKB P08684; experiment: Inhibition of human liver microsome CYP3A4 at 1 uM expressed in baculosomes using fluorogenic-DBOMF as substrate preincubated for 10 mins followed by substrate addition and measured after 60 mins by fluorescence based assay; assay type: ADME, microsomes; settings: recombinant CYP3A4 expressed in baculosomes, probe DBOMF (fluorogenic)
Kindly supply the reported inhibition at 1 h, 1 µM values for the records listed here.
Answers are plain numbers, in %.

Recorded inhibition at 1 h, 1 µM, per entry:
{"Compound": "CCC(C)n1ncn(-c2ccc(N3CCN(c4ccc(OC[C@@H]5CO[C@@](Cn6ncnn6)(c6ccc(Cl)cc6Cl)O5)cc4)CC3)cc2)c1=O (stereo partly drawn)", "inhibition at 1 h, 1 µM, %": 17}
{"Compound": "CCC(C)n1ncn(-c2ccc(N3CCN(c4ccc(OC[C@@H]5CO[C@@](Cn6nnnc6-c6ccccc6)(c6ccc(Cl)cc6Cl)O5)cc4)CC3)cc2)c1=O (stereo partly drawn)", "inhibition at 1 h, 1 µM, %": 18}

Specify measured inhibition at 1 h, 1 µM for CCC(C)n1ncn(-c2ccc(N3CCN(c4ccc(OC[C@@H]5CO[C@@](Cn6cnc(C)n6)(c6ccc(Cl)cc6Cl)O5)cc4)CC3)cc2)c1=O (stereo partly drawn) .
30
